measurement target: bovine serum albumin (BSA) (Bos taurus, UniProt P02769)
Construct: purchased Sigma-Aldrich Co
Sequence (P02769 25-607): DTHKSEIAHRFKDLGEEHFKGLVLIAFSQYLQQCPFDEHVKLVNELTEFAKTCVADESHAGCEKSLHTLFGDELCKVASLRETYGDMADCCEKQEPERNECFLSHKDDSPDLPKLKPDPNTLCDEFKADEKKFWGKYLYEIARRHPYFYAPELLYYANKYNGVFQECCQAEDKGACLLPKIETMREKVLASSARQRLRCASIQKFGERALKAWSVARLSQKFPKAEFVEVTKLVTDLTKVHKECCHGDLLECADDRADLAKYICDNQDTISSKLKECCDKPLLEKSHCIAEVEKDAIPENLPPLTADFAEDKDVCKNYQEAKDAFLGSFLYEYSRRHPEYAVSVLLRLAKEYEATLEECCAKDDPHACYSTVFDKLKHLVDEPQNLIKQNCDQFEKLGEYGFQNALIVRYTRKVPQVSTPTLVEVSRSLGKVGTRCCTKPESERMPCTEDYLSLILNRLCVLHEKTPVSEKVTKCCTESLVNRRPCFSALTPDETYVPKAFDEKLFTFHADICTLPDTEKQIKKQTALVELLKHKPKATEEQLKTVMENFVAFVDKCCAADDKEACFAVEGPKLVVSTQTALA
procedure summary: Competitive albumin-fluorescence studies with warfarin and ibuprofen
Format: binding
condition label: from comparison of K with and without site markers

| molecule | preferential BSA-binding site |
| --- | --- |
| O=C([O-])c1ccccc1Nc1ccc([N+](=O)[O-])cc1.O=C([O-])c1ccccc1Nc1ccc([N+](=O)[O-])cc1.[Co+2].c1cnc2c(c1)ccc1cccnc12 [Complex 3, [Co(4′–NO2–fen)2(phen)]] | Sudlow’s site I |
| CO.CO.CO.CO.O=C([O-])c1ccccc1Nc1ccc([N+](=O)[O-])cc1.O=C([O-])c1ccccc1Nc1ccc([N+](=O)[O-])cc1.[Co+2] [Complex 1, [Co(4′–NO2–fen)2(MeOH)4]] | Sudlow’s site I |
| C[O-].C[O-].Cc1ccc2ccc3ccc(C)nc3c2n1.Cc1ccc2ccc3ccc(C)nc3c2n1.O=C([O-])c1ccccc1Nc1ccc([N+](=O)[O-])cc1.O=C([O-])c1ccccc1Nc1ccc([N+](=O)[O-])cc1.[Co+2].[Co+2] [Complex 4, [Co2(4′–NO2–fen)2(μ–CH3O)2(neoc)2]] | Sudlow’s site I |
| O=C(O)c1ccccc1Nc1ccc([N+](=O)[O-])cc1 | Sudlow’s site I |

---

measurement target: bovine serum albumin (BSA) (Bos taurus, UniProt P02769)
Construct: purchased Sigma-Aldrich Co
procedure summary: Albumin tryptophan fluorescence quenching
Assay type: binding
condition label: Scatchard equation; no site marker
attribute measured: K(BSA)

Note K(BSA) for the molecule shown: O=C([O-])c1ccccc1Nc1ccc([N+](=O)[O-])cc1.O=C([O-])c1ccccc1Nc1ccc([N+](=O)[O-])cc1.[Co+2].c1ccc(Nc2ccccn2)nc1 [Complex 2, [Co(4′–NO2–fen)2(bipyam)]]
1.75 (±0.08) × 10^5 M^−1

Note K(BSA) for the molecule shown: CO.CO.CO.CO.O=C([O-])c1ccccc1Nc1ccc([N+](=O)[O-])cc1.O=C([O-])c1ccccc1Nc1ccc([N+](=O)[O-])cc1.[Co+2] [Complex 1, [Co(4′–NO2–fen)2(MeOH)4]]
1.68 (±0.07) × 10^5 M^−1

Note K(BSA) for the molecule shown: "O=C(O)c1ccccc1Nc1ccc([N+](=O)[O-])cc1"
3.31 (±0.14) × 10^5 M^−1

Note K(BSA) for the molecule shown: C[O-].C[O-].Cc1ccc2ccc3ccc(C)nc3c2n1.Cc1ccc2ccc3ccc(C)nc3c2n1.O=C([O-])c1ccccc1Nc1ccc([N+](=O)[O-])cc1.O=C([O-])c1ccccc1Nc1ccc([N+](=O)[O-])cc1.[Co+2].[Co+2] [Complex 4, [Co2(4′–NO2–fen)2(μ–CH3O)2(neoc)2]]
2.74 (±0.10) × 10^5 M^−1

Note K(BSA) for the molecule shown: O=C([O-])c1ccccc1Nc1ccc([N+](=O)[O-])cc1.O=C([O-])c1ccccc1Nc1ccc([N+](=O)[O-])cc1.[Co+2].c1cnc2c(c1)ccc1cccnc12 [Complex 3, [Co(4′–NO2–fen)2(phen)]]
2.06 (±0.07) × 10^5 M^−1

---

System: Staphylococcus aureus ATCC 29213
procedure summary: Antibacterial activity, MIC
Format: cell-based
condition label: 24 h incubation, 37°C
For each entry below, report its MIC, S. aureus value.
Write down the numeric answer in µg/mL and omit the unit.

Note MIC, S. aureus for the molecule shown: O=C([O-])c1ccccc1Nc1ccc([N+](=O)[O-])cc1.O=C([O-])c1ccccc1Nc1ccc([N+](=O)[O-])cc1.[Co+2].c1cnc2c(c1)ccc1cccnc12 [Complex 3, [Co(4′–NO2–fen)2(phen)]]
25

Note MIC, S. aureus for the molecule shown: C[O-].C[O-].Cc1ccc2ccc3ccc(C)nc3c2n1.Cc1ccc2ccc3ccc(C)nc3c2n1.O=C([O-])c1ccccc1Nc1ccc([N+](=O)[O-])cc1.O=C([O-])c1ccccc1Nc1ccc([N+](=O)[O-])cc1.[Co+2].[Co+2] [Complex 4, [Co2(4′–NO2–fen)2(μ–CH3O)2(neoc)2]]
12.5

Note MIC, S. aureus for the molecule shown: CO.CO.CO.CO.O=C([O-])c1ccccc1Nc1ccc([N+](=O)[O-])cc1.O=C([O-])c1ccccc1Nc1ccc([N+](=O)[O-])cc1.[Co+2] [Complex 1, [Co(4′–NO2–fen)2(MeOH)4]]
12.5

---

System: EB–DNA adduct (CT DNA)
procedure summary: EB-displacement (EB–DNA fluorescence quenching)
Type: binding, calf
condition label: τ0 = 23 ns
attribute measured: quenching constant Kq (EB–DNA)

Note quenching constant Kq (EB–DNA) for the molecule shown: CO.CO.CO.CO.O=C([O-])c1ccccc1Nc1ccc([N+](=O)[O-])cc1.O=C([O-])c1ccccc1Nc1ccc([N+](=O)[O-])cc1.[Co+2] [Complex 1, [Co(4′–NO2–fen)2(MeOH)4]]
2.17 (±0.06) × 10^12 M^−1s^−1

Note quenching constant Kq (EB–DNA) for the molecule shown: C[O-].C[O-].Cc1ccc2ccc3ccc(C)nc3c2n1.Cc1ccc2ccc3ccc(C)nc3c2n1.O=C([O-])c1ccccc1Nc1ccc([N+](=O)[O-])cc1.O=C([O-])c1ccccc1Nc1ccc([N+](=O)[O-])cc1.[Co+2].[Co+2] [Complex 4, [Co2(4′–NO2–fen)2(μ–CH3O)2(neoc)2]]
3.38 (±0.10) × 10^12 M^−1s^−1

Note quenching constant Kq (EB–DNA) for the molecule shown: O=C([O-])c1ccccc1Nc1ccc([N+](=O)[O-])cc1.O=C([O-])c1ccccc1Nc1ccc([N+](=O)[O-])cc1.[Co+2].c1cnc2c(c1)ccc1cccnc12 [Complex 3, [Co(4′–NO2–fen)2(phen)]]
3.21 (±0.09) × 10^12 M^−1s^−1

Note quenching constant Kq (EB–DNA) for the molecule shown: "O=C(O)c1ccccc1Nc1ccc([N+](=O)[O-])cc1"
2.33 (±0.11) × 10^12 M^−1s^−1

Note quenching constant Kq (EB–DNA) for the molecule shown: O=C([O-])c1ccccc1Nc1ccc([N+](=O)[O-])cc1.O=C([O-])c1ccccc1Nc1ccc([N+](=O)[O-])cc1.[Co+2].c1ccc(Nc2ccccn2)nc1 [Complex 2, [Co(4′–NO2–fen)2(bipyam)]]
3.88 (±0.09) × 10^12 M^−1s^−1

---

measurement target: bovine serum albumin (BSA) (Bos taurus, UniProt P02769)
Construct: purchased Sigma-Aldrich Co
procedure summary: Albumin tryptophan fluorescence quenching
Type: binding
condition label: % of the initial BSA fluorescence remaining, λem 345 nm
Label true (1) when relative fluorescence intensity of BSA (I/Io, %), final is strictly below 40%; otherwise label false (0).

A record lists "O=C(O)c1ccccc1Nc1ccc([N+](=O)[O-])cc1" . Is its relative fluorescence intensity of BSA (I/Io, %), final below 40%?
false (0)

A record lists CO.CO.CO.CO.O=C([O-])c1ccccc1Nc1ccc([N+](=O)[O-])cc1.O=C([O-])c1ccccc1Nc1ccc([N+](=O)[O-])cc1.[Co+2] [Complex 1, [Co(4′–NO2–fen)2(MeOH)4]] . Is its relative fluorescence intensity of BSA (I/Io, %), final below 40%?
false (0)

A record lists C[O-].C[O-].Cc1ccc2ccc3ccc(C)nc3c2n1.Cc1ccc2ccc3ccc(C)nc3c2n1.O=C([O-])c1ccccc1Nc1ccc([N+](=O)[O-])cc1.O=C([O-])c1ccccc1Nc1ccc([N+](=O)[O-])cc1.[Co+2].[Co+2] [Complex 4, [Co2(4′–NO2–fen)2(μ–CH3O)2(neoc)2]] . Is its relative fluorescence intensity of BSA (I/Io, %), final below 40%?
true (1)

A record lists O=C([O-])c1ccccc1Nc1ccc([N+](=O)[O-])cc1.O=C([O-])c1ccccc1Nc1ccc([N+](=O)[O-])cc1.[Co+2].c1cnc2c(c1)ccc1cccnc12 [Complex 3, [Co(4′–NO2–fen)2(phen)]] . Is its relative fluorescence intensity of BSA (I/Io, %), final below 40%?
true (1)

A record lists O=C([O-])c1ccccc1Nc1ccc([N+](=O)[O-])cc1.O=C([O-])c1ccccc1Nc1ccc([N+](=O)[O-])cc1.[Co+2].c1ccc(Nc2ccccn2)nc1 [Complex 2, [Co(4′–NO2–fen)2(bipyam)]] . Is its relative fluorescence intensity of BSA (I/Io, %), final below 40%?
true (1)

---

Tested on: EB–DNA adduct (CT DNA)
procedure summary: EB-displacement (EB–DNA fluorescence quenching)
Assay type: binding, calf
condition label: % of the initial EB–DNA fluorescence remaining, λemission 594 nm
attribute measured: relative EB–DNA fluorescence emission intensity (I/Io, %), final
Write down the numeric answer in % and omit the unit.

Note relative EB–DNA fluorescence emission intensity (I/Io, %), final for the molecule shown: O=C([O-])c1ccccc1Nc1ccc([N+](=O)[O-])cc1.O=C([O-])c1ccccc1Nc1ccc([N+](=O)[O-])cc1.[Co+2].c1cnc2c(c1)ccc1cccnc12 [Complex 3, [Co(4′–NO2–fen)2(phen)]]
26.3

Note relative EB–DNA fluorescence emission intensity (I/Io, %), final for the molecule shown: CO.CO.CO.CO.O=C([O-])c1ccccc1Nc1ccc([N+](=O)[O-])cc1.O=C([O-])c1ccccc1Nc1ccc([N+](=O)[O-])cc1.[Co+2] [Complex 1, [Co(4′–NO2–fen)2(MeOH)4]]
35.4

Note relative EB–DNA fluorescence emission intensity (I/Io, %), final for the molecule shown: C[O-].C[O-].Cc1ccc2ccc3ccc(C)nc3c2n1.Cc1ccc2ccc3ccc(C)nc3c2n1.O=C([O-])c1ccccc1Nc1ccc([N+](=O)[O-])cc1.O=C([O-])c1ccccc1Nc1ccc([N+](=O)[O-])cc1.[Co+2].[Co+2] [Complex 4, [Co2(4′–NO2–fen)2(μ–CH3O)2(neoc)2]]
26.0

Note relative EB–DNA fluorescence emission intensity (I/Io, %), final for the molecule shown: O=C([O-])c1ccccc1Nc1ccc([N+](=O)[O-])cc1.O=C([O-])c1ccccc1Nc1ccc([N+](=O)[O-])cc1.[Co+2].c1ccc(Nc2ccccn2)nc1 [Complex 2, [Co(4′–NO2–fen)2(bipyam)]]
32.6

Note relative EB–DNA fluorescence emission intensity (I/Io, %), final for the molecule shown: "O=C(O)c1ccccc1Nc1ccc([N+](=O)[O-])cc1"
52.9
